- assayComment: Pharmacokinetic experiment: passage of PPAR δ agonist through the placenta
- Format: in vivo, mice
- measurementSetup: female, mouse, blood, oral; mother animals; 16-day pregnant mice, 10 mg/kg; read-out: half-time (t1/2) (converted)
measurementKind: half-life (h)
The reply should be a number in h, with the unit left off.

# half-life lookup, item Cc1cc(SC(Cc2ccccc2)c2sc(-c3ccc(C(F)(F)F)cc3)nc2C)ccc1OCC(=O)O (stereo not shown)
9

---

Each item that follows carries a reported EC50.
- assaySystem: hPPAR δ (Homo sapiens)
- Sequence (Q03181 whole entry): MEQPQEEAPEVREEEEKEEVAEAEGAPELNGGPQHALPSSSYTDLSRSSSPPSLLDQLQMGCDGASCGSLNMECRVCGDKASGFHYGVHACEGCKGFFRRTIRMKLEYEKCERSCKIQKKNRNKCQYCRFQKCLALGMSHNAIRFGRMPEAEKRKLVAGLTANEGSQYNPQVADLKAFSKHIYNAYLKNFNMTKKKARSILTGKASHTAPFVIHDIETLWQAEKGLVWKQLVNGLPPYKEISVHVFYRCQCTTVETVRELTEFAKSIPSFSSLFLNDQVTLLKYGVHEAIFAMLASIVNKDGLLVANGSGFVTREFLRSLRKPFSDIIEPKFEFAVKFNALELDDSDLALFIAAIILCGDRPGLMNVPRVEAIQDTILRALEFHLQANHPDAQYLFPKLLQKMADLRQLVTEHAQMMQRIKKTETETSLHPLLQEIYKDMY
- assayComment: Transfection assay in CV-1 cells, hPPAR δ
- measurementSetup: luciferase reporter
The reply should be a number in nM, with the unit left off.

Recorded EC50, per entry:
- compound: "Cc1cc(SC(Cc2ccc(-c3ccc(C(F)(F)F)cc3)nc2)c2sc(-c3ccc(C(F)(F)F)cc3)nc2C)ccc1OCC(=O)O (stereo not drawn) [Compound 21]"
  EC50 / nM: 10.6
- compound: "Cc1cc(SC(Cc2ccc(-c3cccc(C(F)(F)F)c3)cc2)c2sc(-c3ccc(C(F)(F)F)cc3)nc2C)ccc1OCC(=O)O (stereo not drawn) [Compound 25]"
  EC50 / nM: 6.1

With those in mind, consider the next compound.
# EC50 lookup, item Cc1cc(SC(Cc2ccc(-c3ccc(C(F)(F)F)cc3)cc2)c2sc(-c3ccc(C(F)(F)F)cc3)nc2C)ccc1OCC(=O)O (stereo not drawn) [Compound 17]
6.4

---

- assaySystem: UniProtKB Q03181
- assayComment: Transfection assay in CV-1 cells, hPPAR δ
- measurementSetup: luciferase reporter
Assign labels as follows, please: 1 for EC50 below 4 nM; 0 for EC50 equal to or exceeding 4 nM.

- compound: "Cc1cc(SC(Cc2ccc(-c3cc(F)c(F)c(F)c3)cc2)c2sc(-c3ccc(C(F)(F)F)cc3)nc2C)ccc1OCC(=O)O (centres unmarked)"
  cat: 0
- compound: "Cc1cc(SC(Cc2cc(-c3ccc(F)cc3)no2)c2sc(-c3ccc(C(F)(F)F)cc3)nc2C)ccc1OCC(=O)O (centres unmarked)"
  cat: 0
- compound: "CCOC(=O)COc1ccc(SC(Cc2ccc(-c3ccc(F)c(Cl)c3)cc2)c2sc(-c3ccc(C(F)(F)F)cc3)nc2C)cc1C (centres unmarked)"
  cat: 0

Moving on to another compound below.
Item Cc1cc(SC(Cc2ccc(-c3ccccc3)cc2)c2sc(-c3ccc(C(F)(F)F)cc3)nc2C)ccc1OCC(=O)O (centres unmarked) : EC50 beneath 4 nM, strictly?
1

---

- assayComment: Pharmacokinetic experiment: passage of PPAR δ agonist through the placenta
- Type: in vivo, mice
- measurementSetup: female, mouse, blood, oral; mother animals; 16-day pregnant mice, 10 mg/kg; read-out: maximum blood concentration (Cmax)
measurementKind: Cmax
Report as: number unit

# Cmax lookup, item Cc1cc(SC(Cc2ccccc2)c2sc(-c3ccc(C(F)(F)F)cc3)nc2C)ccc1OCC(=O)O (stereo not shown)
38 µM
